- System: PPARg:RXRa 30nM:10nM, anti-RXR (NR concentration 30 nM, RXRa partner concentration 10 nM)
- experiment.summary: PBM binding z-score (relative to random genomic background probes); higher = stronger binding; sequences stand for … in GC…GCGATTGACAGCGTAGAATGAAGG
Values of PBM binding z-score greater than or equal to 2 map to satisfied; values below map to not satisfied.

Worked examples, 5 sequences total:
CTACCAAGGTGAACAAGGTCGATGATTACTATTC	not satisfied
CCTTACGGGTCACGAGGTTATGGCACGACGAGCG	satisfied
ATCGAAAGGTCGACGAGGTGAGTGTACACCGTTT	not satisfied
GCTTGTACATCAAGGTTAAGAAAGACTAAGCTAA	not satisfied
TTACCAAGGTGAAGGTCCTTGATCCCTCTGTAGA	not satisfied

In: Textbook exercise: given the entry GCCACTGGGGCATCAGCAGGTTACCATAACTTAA , state whether its PBM binding z-score is greater than or equal to 2.
Out: not satisfied

In: In plain terms: is recorded PBM binding z-score at least 2 for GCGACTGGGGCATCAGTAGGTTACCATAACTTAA ?
Out: not satisfied

In: Confirm if PBM binding z-score reported for the sequence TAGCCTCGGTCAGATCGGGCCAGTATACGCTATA is 2 or above.
Out: not satisfied

----------
- Test system: RARg homodimer (NR concentration 270 nM)
- experiment.summary: PBM binding z-score (relative to random genomic background probes); higher = stronger binding; sequences stand for … in GC…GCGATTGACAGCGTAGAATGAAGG
Binary call on PBM binding z-score: Met from 1 upward, Not met beneath that.

Use the examples below as a reference point.
AGAACGAGGGCAATGAGTAGATAGCACGGGTGGC	Met
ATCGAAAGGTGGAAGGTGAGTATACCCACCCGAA	Not met
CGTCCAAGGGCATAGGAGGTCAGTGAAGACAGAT	Met
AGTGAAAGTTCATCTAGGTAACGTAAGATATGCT	Met
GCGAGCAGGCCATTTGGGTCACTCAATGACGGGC	Met
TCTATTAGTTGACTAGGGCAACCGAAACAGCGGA	Not met
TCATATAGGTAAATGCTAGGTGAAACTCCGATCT	Not met
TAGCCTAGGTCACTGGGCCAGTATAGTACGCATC	Met
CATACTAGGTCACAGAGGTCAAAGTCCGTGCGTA	Met
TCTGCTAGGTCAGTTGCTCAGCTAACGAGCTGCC	Met

In: Does PBM binding z-score meet or surpass 1 for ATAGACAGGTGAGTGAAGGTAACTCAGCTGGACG ?
Out: Not met

In: State whether the measured PBM binding z-score reaches 1, counting equality as reaching it, for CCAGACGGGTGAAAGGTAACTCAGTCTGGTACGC
Out: Not met

In: Does the sequence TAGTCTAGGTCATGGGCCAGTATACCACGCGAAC have recorded PBM binding z-score that is 1 or more?
Out: Met

In: Quick check, PBM binding z-score >= 1? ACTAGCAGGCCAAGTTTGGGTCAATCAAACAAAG
Out: Met

In: hey, is PBM binding z-score for this one >= 1? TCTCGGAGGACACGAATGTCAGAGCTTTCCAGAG
Out: Met
